Tested on: NF-κB activity
Protocol Details: NF-κB luciferase reporter assay in MDA-MB-231 cells overexpressing Bcl-3
Format: cell-based, human
Test Settings: MDA-MB-231 overexpressing Bcl-3, 24 hrs then reporter 48 hrs; read-out: IC50 NF-κB activity
Attribute Measured: IC50 (nM)
Number in nM, nothing else.

GET /value?item= O=C(Nc1ccccc1C(=O)NCCN1CCOCC1)c1ccc(F)cc1F [Compound 1q] &field=IC50 returns 989

GET /value?item= O=C(NCCN1CCOCC1)c1ccccc1NC(=O)c1c(F)cccc1F [Compound 1p] &field=IC50 returns 706

GET /value?item= O=C(Nc1ccccc1C(=O)NCCN1CCOCC1)c1cc(F)cc(F)c1 [Compound 1o] &field=IC50 returns 238

* * *

Target Under Test: Bcl-3-p50 binding (Homo sapiens, UniProt P20749)
Construct: expressed in transfected cells; host or cells: HEK-293
Sequence (P20749 1-454): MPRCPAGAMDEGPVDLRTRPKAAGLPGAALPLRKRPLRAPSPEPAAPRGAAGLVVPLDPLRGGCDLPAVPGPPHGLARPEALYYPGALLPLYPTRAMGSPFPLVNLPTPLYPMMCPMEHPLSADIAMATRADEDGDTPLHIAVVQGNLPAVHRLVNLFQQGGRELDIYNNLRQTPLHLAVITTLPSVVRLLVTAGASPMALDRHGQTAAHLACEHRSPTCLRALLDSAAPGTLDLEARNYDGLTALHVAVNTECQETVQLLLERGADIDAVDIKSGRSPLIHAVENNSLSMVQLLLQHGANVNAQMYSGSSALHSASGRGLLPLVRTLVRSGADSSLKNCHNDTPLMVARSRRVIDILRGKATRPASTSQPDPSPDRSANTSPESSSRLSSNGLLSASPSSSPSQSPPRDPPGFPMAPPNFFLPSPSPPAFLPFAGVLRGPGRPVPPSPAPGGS
Protocol Details: Indirect sandwich ELISA of Bcl-3 binding to p50 in lysates of treated HEK-293 cells overexpressing FLAG-tagged Bcl-3
Assay type: cell-based
Test Settings: HEK-293 Bcl-3 WT, 24 hrs; IC50 could not be established, calculated with GraphPad; read-out: IC50 Indirect Sandwich ELISA, calculated from the dose response curve
Experimental: Proteins were extracted from cells in order to be analyzed by ELISA assay. The media from tissue culture flask was removed and cells were rinsed with ice cold PBS (Sigma, Dorset, UK). Appropriate volume of PBS (5 ml for T25, 10 ml for T80) was added into the flask and cells were removed with a cell scraper (Nunc, Leics, UK). The cell suspension was then transferred to 15 ml tubes and centrifuged at 11000 rpm for 5 min at room temperature. […]
Attribute Measured: IC50 (µM)
Number in µM, nothing else.

GET /value?item= `O=C(Nc1ccccc1C(=O)NCCCN1CCOCC1)c1ccccc1F` &field=IC50 returns 15.2
